# System: salivary cortisol
# assay-info: Timed mathematical and word stress test in panelists exposed to fragrance compound; salivary cortisol before vs after stress
# Type: in vivo, human
# reported-conditions: panelists' saliva, before vs immediately after stress test; single fragrance compound in DPG solvent; DPG control 10.8%
Examples of molecules with documented % Change in Cortisol (i.e., before versus after stress) follow.
measured-quantity: % Change in Cortisol (i.e., before versus after stress) (%)

molecule: CC(C)=CCCC(C)=CC=O
target-under-test: salivary cortisol
observed-measurement: −2.8
//
molecule: CC(C)=CCCC(C)CC=O (stereo not shown)
target-under-test: salivary cortisol
observed-measurement: 16.8
//
molecule: CC(C)=CCCC(C)CCO (stereo not shown)
target-under-test: salivary cortisol
observed-measurement: 3.4
//
molecule: C=CC(=C)CCCC(C)(C)OC(C)=O [Myrcenyl Acetate]
target-under-test: salivary cortisol
observed-measurement: −6.9
//
molecule: CC(=O)OC1CCCCC1C(C)(C)C (stereo not shown) [2-tert-butylcyclohexyl acetate]
target-under-test: salivary cortisol
observed-measurement: −14.2
//
molecule: CC1(O)CCC2C(=CCCC2(C)C)C1 (stereo not shown)
target-under-test: salivary cortisol
observed-measurement: 30.0
//
molecule: CC(C=O)Cc1ccc(C(C)C)cc1 (stereo not shown)
target-under-test: salivary cortisol
observed-measurement: 17.73
//
molecule: CC(C)(C)C1CCC(=O)C(C(C)(C)C)C1 (stereo not shown)
target-under-test: salivary cortisol
observed-measurement: 8.3
//
molecule: C=CC(C)CCC=C(C)C (stereo not shown)
target-under-test: salivary cortisol
observed-measurement: −8.1
//
molecule: CC1(C)CCC[C@]2(C)[C@H]3CCO[C@]3(C)CC[C@@H]12 [Ambroxide]
target-under-test: salivary cortisol
observed-measurement: 1.1
//
molecule: CC(=O)O[C@@H]1C[C@@H]2CC[C@@]1(C)C2(C)C [Bornyl Acetate, L]
target-under-test: salivary cortisol
observed-measurement: −13.0
//
molecule: CC(=O)C1(C)CC2=C(CCCC2(C)C)CC1C (stereo not shown)
target-under-test: salivary cortisol
observed-measurement: −11.9
//
molecule: CC12CCC(CC1)C(C)(C)O2
target-under-test: salivary cortisol
observed-measurement: −12.87
//
molecule: COC(=O)OC1CCC=CCCC1 (stereo not shown) [1-cyclooct-4-enyl methyl carbonate]
target-under-test: salivary cortisol
observed-measurement: 3.5
//
molecule: CC12CCC(CC1=O)C2(C)C (stereo not shown)
target-under-test: salivary cortisol
observed-measurement: −2.2
//
molecule: C=CC(C)CCCC(C)(C)OC(C)=O (stereo not shown) [Dihydromyrcenyl Acetate]
target-under-test: salivary cortisol
observed-measurement: −13.3
